Where do the numbers come from? From patent US10487068B2.

For reference, IC50 measured on RORc ligand binding domain (Homo sapiens, UniProt P51449):
experimental.readout: IC50 (nM)

Known IC50 results, listed for orientation:
compound	IC50 [nM]
CC1(C)[C@H]2CC[C@]1(c1cncc(-c3cn[nH]c3)n1)c1nnc(-c3c(F)cccc3F)cc12 [Example 205]	10.4
CC(C)(O)c1coc(-c2cccc([C@@]34CC[C@@H](c5cc(-c6c(F)cccc6F)nnc53)C4(C)C)n2)n1 [Example 240]	4.5

[P] CC1(C)[C@H]2CC[C@]1(c1cccc(N3CCNC3=O)n1)c1nnc(-c3c(F)cccc3F)cc12 [Example 157]
[Q] C[C@H](O)CNC(=O)c1nccc([C@@]23CC[C@@H](c4cc(-c5c(F)cccc5F)nnc42)C3(C)C)n1 [Example 114]
[Q] Looking only at measured IC50, which entry is lower, P or Q ? // return label of chosen record
[A] P
(P: 5.1 nM, Q: 38.8 nM)

---

Target: RORc ligand binding domain (Homo sapiens, UniProt P51449)
Sequence (P51449 269-508 limits assumed): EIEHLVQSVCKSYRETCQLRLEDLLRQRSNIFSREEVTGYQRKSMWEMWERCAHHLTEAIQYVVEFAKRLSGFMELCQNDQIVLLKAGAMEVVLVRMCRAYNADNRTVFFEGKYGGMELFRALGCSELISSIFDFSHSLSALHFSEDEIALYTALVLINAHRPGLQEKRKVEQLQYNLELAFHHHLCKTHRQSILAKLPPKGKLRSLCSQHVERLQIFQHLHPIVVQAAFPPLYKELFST
Test: In Vitro RORc Ligand Binding Assay
Details: RORc IC50, radioligand 25-[3H]hydroxycholesterol 6 nM; 0.6 ug/mL RORc receptor; 3 h at 25° C.
pIC50: −log10 of the molar value.
experimental.readout: pIC50

Known pIC50 results, listed for orientation:
smiles	pIC50
C[C@H](O)c1coc(-c2cncc([C@@]34CC[C@@H](c5cc(-c6c(F)cccc6F)nnc53)C4(C)C)n2)n1	8.17
CC1(C)[C@H]2CC[C@]1(c1cccc(-c3nc([C@@H](O)C(F)(F)F)n[nH]3)n1)c1nnc(-c3c(F)cccc3F)cc12	8.25
CC1(C)[C@H]2CC[C@]1(c1cncc(-c3ccnc(OCC(N)=O)c3)n1)c1nnc(-c3c(F)cccc3F)cc12	8.20

[I] CC(C)(O)c1nc(-c2cncc([C@@]34CC[C@@H](c5cc(-c6c(F)cccc6F)nnc53)C4(C)C)n2)oc1CO
[II] COC(=O)c1nccc([C@@]23CC[C@@H](c4cc(-c5c(F)cccc5Cl)nnc42)C3(C)C)n1
[Q] Looking only at measured pIC50, which entry is lower, I or II ? // return label of chosen record
[A] I

[1] CC1(C)[C@H]2CC[C@]1(c1ccnc(-n3cnc(N)n3)n1)c1nnc(-c3c(F)cccc3F)cc12
[2] CC1(C)[C@H]2CC[C@]1(c1cncc(C(=O)NCCCO)n1)c1nnc(-c3c(F)cccc3F)cc12
[Q] Select one: 1 or 2 . Criterion: greater recorded pIC50. // return label of chosen record
[A] 1
(1: 7.71, 2: 7.51)

---

Target: RORc ligand binding domain (Homo sapiens, UniProt P51449)
Sequence (P51449 269-508 limits assumed): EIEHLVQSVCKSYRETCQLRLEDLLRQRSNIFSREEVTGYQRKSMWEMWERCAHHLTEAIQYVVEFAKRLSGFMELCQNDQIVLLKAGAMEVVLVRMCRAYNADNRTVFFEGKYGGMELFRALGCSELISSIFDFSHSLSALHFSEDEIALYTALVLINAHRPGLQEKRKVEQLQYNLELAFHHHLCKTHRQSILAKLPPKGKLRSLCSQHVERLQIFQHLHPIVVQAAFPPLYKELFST
experimental.readout: IC50 (nM)

[A] CC1(C)[C@H]2CC[C@]1(c1cncc(CNC(=O)CO)n1)c1nnc(-c3c(F)cccc3F)cc12
[B] CC1(C)[C@H]2CC[C@]1(c1cc(C#N)ncc1Br)c1nnc(-c3c(F)cccc3F)cc12
[C] CC1(C)[C@H]2CC[C@]1(c1cncc(-c3ccc(N)nc3)n1)c1nnc(-c3c(F)cccc3F)cc12
[Q] List from greatest to least IC50. The labels, placed in the requested order, form the answer.
[A] A, B, C

[1] CC1(C)[C@H]2CC[C@]1(c1cccnn1)c1nnc(-c3c(F)cccc3F)cc12
[2] CC1(C)[C@@H]2CC[C@@]1(c1cncc(C(=O)NCCO)n1)c1nnc(-c3c(F)cccc3F)cc12
[Q] Looking only at measured IC50, which entry is lower, 1 or 2 ? // return label of chosen record
[A] 1
